tested on: Danio rerio larvae (5 dpf); assay: difference in excitability vs DMSO (percentage points); higher = more excitable than DMSO; conditions: 10 µM; exposure time 6 h
Structures can show the parent of a compound that is named as a salt.
The reader will find reported difference in excitability values listed item by item below.
Just the number, please, no unit after it.

Observe how each entry below is paired with its result.
[[record]]
molecule = "O=C(NCC1CCCCN1)c1cc(OCC(F)(F)F)ccc1OCC(F)(F)F (stereo not given) [Flecainide (acetate)]"
endpoint_value = 6.44

[[record]]
molecule = "CN/C(=N\\CCSCc1nc[nH]c1C)NC#N"
endpoint_value = -1.49

[[record]]
molecule = "CN1CC2c3ccccc3Oc3ccc(Cl)cc3C2C1 (racemic) [(±)-Asenapine]"
endpoint_value = 15.8

[[record]]
molecule = "CN1CCC(=C2c3ccccc3C=Cc3ccccc32)CC1 [Cyproheptadine (hydrochloride hydrate)]"
endpoint_value = 6.61

[[record]]
molecule = "Cn1cnc2c(F)c(Nc3ccc(Br)cc3F)c(C(=O)NOCCO)cc21"
endpoint_value = -0.212


// lookup difference in excitability for CC(C)(C)NCC(O)c1ccc(O)c(CO)c1 (stereo not given) 8.67

// lookup difference in excitability for CCN1C(=O)NC(c2ccccc2)C1=O (stereo not given) -4.35

// lookup difference in excitability for CCOCCn1c(N2CCCN(C)CC2)nc2ccccc21 [Emedastine (fumarate)] 5.25

// lookup difference in excitability for OC(CCN1CCCCC1)(c1ccccc1)C1CC2C=CC1C2 (stereo not given) [Biperiden (hydrochloride)] 9.71

// lookup difference in excitability for Clc1ccc(C(c2ccccc2Cl)C(Cl)Cl)cc1 (stereo not given) 5.19

---

system: Danio rerio larvae (5 dpf); assay: difference in combined optomotor response to red, green and blue moving lines vs DMSO (percentage points); higher = stronger optomotor response than DMSO; conditions: 10 µM; exposure time 6 h
Counter-ions that a name gives are not always drawn.
PROPERTY_NAME: difference
Just the number, please, no unit after it.

Observe how each entry below is paired with its result.
[[record]]
compound = "COc1cc(Nc2ncc(F)c(Nc3ccc4c(n3)N(COP(=O)(O)O)C(=O)C(C)(C)O4)n2)cc(OC)c1OC [R788 (sodium salt)]"
endpoint_value = 2.43

[[record]]
compound = "Nc1c(CC(=O)O)cccc1C(=O)c1ccc(Br)cc1 [Bromfenac (sodium salt)]"
endpoint_value = 1.64

[[record]]
compound = "NNC(=O)c1ccncc1"
endpoint_value = 6.66

[[record]]
compound = "Cc1c(OCC(F)(F)F)ccnc1C[S+]([O-])c1nc2ccccc2[nH]1 (stereo not drawn)"
endpoint_value = 6.61

[[record]]
compound = "Nc1nc2c(ncn2COC(CO)CO)c(=O)[nH]1"
endpoint_value = 4.57

[[record]]
compound = "CSc1ccc2c(c1)N(CCC1CCCCN1C)c1ccccc1S2 (stereo not drawn) [Thioridazine (hydrochloride)]"
endpoint_value = -5

[[record]]
compound = "O=C1C(O)=C([C@H]2CC[C@H](c3ccc(Cl)cc3)CC2)C(=O)c2ccccc21"
endpoint_value = -7.53


Let us examine a further case.
// lookup difference for CC(=O)OCC(=O)[C@@]1(O)CC[C@H]2[C@@H]3CCC4=CC(=O)CC[C@]4(C)[C@H]3C(=O)C[C@@]21C [Cortisone Acetate] -0.38

---

system: Danio rerio larvae (5 dpf); assay: difference in excitability vs DMSO (percentage points); higher = more excitable than DMSO; details: 10 µM; exposure time 6 h
Structures can show the parent of a compound that is named as a salt.
PROPERTY_NAME: difference in excitability
Just the number, please, no unit after it.

[[record]]
molecule = "CCCCN1C[C@H](O)[C@@H](O)[C@H](O)[C@H]1CO [N-Butyldeoxynojirimycin (hydrochloride)]"
endpoint_value = -7.96

[[record]]
molecule = "Nc1nc(=S)c2[nH]cnc2[nH]1"
endpoint_value = 2.87

[[record]]
molecule = "C#C[C@]1(O)CC[C@H]2[C@@H]3CCc4cc(O)ccc4[C@H]3CC[C@@]21C"
endpoint_value = 3.58

[[record]]
molecule = "CC(=O)[C@H]1CC[C@H]2[C@@H]3CCC4=CC(=O)CC[C@]4(C)[C@H]3CC[C@]12C"
endpoint_value = 3.92

[[record]]
molecule = "C=C(CC)C(=O)c1ccc(OCC(=O)O)c(Cl)c1Cl"
endpoint_value = 4.29

[[record]]
molecule = "CC#CCC(C)[C@H](O)/C=C/[C@@H]1[C@H]2C/C(=C/CCCC(=O)O)C[C@H]2C[C@H]1O (some centres not stated)"
endpoint_value = -3.4

[[record]]
molecule = "NC(=O)NO [Hydroxyurea]"
endpoint_value = -1.52

[[record]]
molecule = "C=C1/C(=C\\C=C2/CCC[C@]3(C)[C@@H]([C@H](C)/C=C/[C@@H](O)C4CC4)CC[C@@H]23)C[C@@H](O)C[C@@H]1O [Calcipotriol (hydrate)]"
endpoint_value = 15.4


// lookup difference in excitability for COc1ccc2cc(CCC(C)=O)ccc2c1 0.732

// lookup difference in excitability for CC(CCc1ccc(O)cc1)NCCc1ccc(O)c(O)c1 (configuration not stated) [Dobutamine (hydrochloride)] 10.9

// lookup difference in excitability for CCCCC[C@H](O)/C=C/[C@H]1[C@H](O)CC(=O)[C@@H]1C/C=C\CCCC(=O)O [Prostaglandin E2] 16.7

// lookup difference in excitability for C[C@@H]1C[C@H]2[C@@H]3CCC4=CC(=O)C=C[C@]4(C)[C@@]3(F)[C@@H](O)C[C@]2(C)[C@@]1(O)C(=O)CO -4.56

// lookup difference in excitability for CCS(=O)(=O)CCn1c([N+](=O)[O-])cnc1C 0.787

// lookup difference in excitability for Cl.N=C(N)NCCC[C@H](N)C(=O)O [L-Arginine (hydrochloride)] 4.03

// lookup difference in excitability for COC(=O)[C@@H]1CC2=CC(=O)CC[C@]2(C)[C@@]23O[C@@H]2C[C@@]2(C)[C@@H](CC[C@@]24CCC(=O)O4)[C@H]13 2.31

// lookup difference in excitability for Nc1[nH]c(=O)ncc1F 0.317

// lookup difference in excitability for Cc1ccc(S(=O)(=O)NC(=O)NN2CCCCCC2)cc1 [Tolazamide] 7.01

---

tested on: Danio rerio larvae (5 dpf); test: difference in excitability vs DMSO (percentage points); higher = more excitable than DMSO; conditions: 10 µM; exposure time 6 h
Structures can show the parent of a compound that is named as a salt.
The reader will find reported difference in excitability values listed item by item below.
Just the number, please, no unit after it.

Observe how each entry below is paired with its result.
[[record]]
compound = "C=C[C@]1(C)C[C@@H](OC(=O)CS[C@@H]2C[C@H]3CC[C@@H](C2)N3C)[C@]2(C)[C@H](C)CC[C@]3(CCC(=O)[C@H]32)[C@@H](C)[C@@H]1O"
endpoint_value = 25.1

[[record]]
compound = "CCN1CCN(C(=O)N[C@@H](C(=O)N[C@@H]2C(=O)N3[C@@H]2SC(C)(C)[C@@H]3C(=O)O)c2ccccc2)C(=O)C1=O [Piperacillin (sodium salt)]"
endpoint_value = 2.92

[[record]]
compound = "CC1(C)NC(=O)N(c2ccc([N+](=O)[O-])c(C(F)(F)F)c2)C1=O [Nilutamide]"
endpoint_value = 3


// fetch Danio rerio larvae (5 dpf) difference in excitability for CCc1cc2c(cc1N1CCC(N3CCOCC3)CC1)C(C)(C)c1[nH]c3cc(C#N)ccc3c1C2=O -3.24

// fetch Danio rerio larvae (5 dpf) difference in excitability for NC(=O)N1c2ccccc2C=Cc2ccccc21 [Carbamazepine] -5.41

// fetch Danio rerio larvae (5 dpf) difference in excitability for CO[C@H]1C[C@@H]2CC[C@@H](C)[C@@](O)(O2)C(=O)C(=O)N2CCCC[C@H]2C(=O)O[C@H]([C@H](C)C[C@@H]2CC[C@@H](OCCO)[C@H](OC)C2)CC(=O)[C@H](C)/C=C(\C)[C@@H](O)[C@@H](OC)C(=O)[C@H](C)C[C@H](C)/C=C/C=C/C=C/1C 1.38

// fetch Danio rerio larvae (5 dpf) difference in excitability for Cn1nnc2c(C(N)=O)ncn2c1=O [Temozolomide] -3.41

---

test system: Danio rerio larvae (5 dpf); assay: difference in habituation to acoustic stimuli vs DMSO (percentage points); higher = more habituation than DMSO; conditions: 10 µM; exposure time 6 h
Structures can show the parent of a compound that is named as a salt.
Just so you know, the groups by difference in habituation to acoustic stimuli go like this: group 1 (below -2), group 2 (-2 to below 0.3), group 3 (0.3 or more)

Use the examples below as a reference point.
[[record]]
molecule = "CC1CNc2c(cccc2S(=O)(=O)N[C@@H](CCCNC(=N)N)C(=O)N2CC[C@@H](C)C[C@@H]2C(=O)O)C1 (some centres undefined)"
discrete_label = "group 1"

[[record]]
molecule = "CC[C@]1(O)C[C@@H]2CN(CCc3c([nH]c4ccccc34)[C@@](C(=O)OC)(c3cc4c(cc3OC)N(C)[C@H]3[C@@](O)(C(=O)OC)[C@H](OC(C)=O)[C@]5(CC)C=CCN6CC[C@]43[C@@H]65)C2)C1 [Vinblastine (sulfate)]"
discrete_label = "group 1"

[[record]]
molecule = "OC(Cn1cncn1)(Cn1cncn1)c1ccc(F)cc1F"
discrete_label = "group 1"

[[record]]
molecule = "Cc1ccc(C(=O)Nc2ccc(CN3CCN(C)CC3)c(C(F)(F)F)c2)cc1C#Cc1cnc2cccnn12"
discrete_label = "group 1"

[[record]]
molecule = "Nc1[nH]c(=O)ncc1F"
discrete_label = "group 1"

[[record]]
molecule = "CO/N=C(\\C(=O)N[C@@H]1C(=O)N2C(C(=O)O)=C(CSc3nc(=O)c(O)nn3C)CS[C@H]12)c1csc(N)n1 [Ceftriaxone (sodium salt hydrate)]"
discrete_label = "group 1"

[[record]]
molecule = "N[C@@H](Cc1cc(I)c(Oc2cc(I)c(O)c(I)c2)c(I)c1)C(=O)O"
discrete_label = "group 2"

[[record]]
molecule = "C[C@H]1C[C@H]2[C@@H]3CCC4=CC(=O)C=C[C@]4(C)[C@@]3(F)[C@@H](O)C[C@]2(C)[C@@]1(O)C(=O)CO"
discrete_label = "group 3"


Consider CN(C)CCOC(C)(c1ccccc1)c1ccccn1 (centres undefined) [Doxylamine (succinate)] . To which difference in habituation to acoustic stimuli class does it belong? group 3

Consider COc1cc(Nc2ncc(F)c(Nc3ccc4c(n3)N(COP(=O)(O)O)C(=O)C(C)(C)O4)n2)cc(OC)c1OC [R788 (sodium salt)] . To which difference in habituation to acoustic stimuli class does it belong? group 2

Consider C=C1CC[C@H](O)C/C1=C/C=C1\CCC[C@]2(C)[C@@H]([C@H](C)/C=C/[C@H](C)C(C)C)CC[C@@H]12 [Vitamin D2] . To which difference in habituation to acoustic stimuli class does it belong? group 3

Consider CCCCN1C[C@H](O)[C@@H](O)[C@H](O)[C@H]1CO [N-Butyldeoxynojirimycin (hydrochloride)] . To which difference in habituation to acoustic stimuli class does it belong? group 3
